test: Hygroscopicity by gravimetric vapour sorption (GVS); type: physicochemical; conditions: mass change between 40% relative humidity and 80% relative humidity in the first adsorption scan, 25° C.
For each of the compounds below, state its mass gain.

// known answers, use as guide
compound: CCC/N=C1\S/C(=C\c2ccc(OC[C@H](O)CO)c(Cl)c2)C(=O)N1c1ccccc1C [Form A]
mass gain: < 0.2%
--
compound: CCC/N=C1\S/C(=C\c2ccc(OC[C@H](O)CO)c(Cl)c2)C(=O)N1c1ccccc1C [Form II]
mass gain: 0.2%
--
compound: CCC/N=C1\S/C(=C\c2ccc(OC[C@H](O)CO)c(Cl)c2)C(=O)N1c1ccccc1C [Amorphous]
mass gain: 2.1%

Now turn to the next compound.
Dear colleague, I am looking for the recorded mass gain of the following compound: CCC/N=C1\S/C(=C\c2ccc(OC[C@H](O)CO)c(Cl)c2)C(=O)N1c1ccccc1C [Form C]
< 0.2%
